Listing of recorded activation by entry.
- Assay target: Cellular tumor antigen p53 (Homo sapiens) (UniProt P04637)
- Sequence (P04637 whole entry, looked up): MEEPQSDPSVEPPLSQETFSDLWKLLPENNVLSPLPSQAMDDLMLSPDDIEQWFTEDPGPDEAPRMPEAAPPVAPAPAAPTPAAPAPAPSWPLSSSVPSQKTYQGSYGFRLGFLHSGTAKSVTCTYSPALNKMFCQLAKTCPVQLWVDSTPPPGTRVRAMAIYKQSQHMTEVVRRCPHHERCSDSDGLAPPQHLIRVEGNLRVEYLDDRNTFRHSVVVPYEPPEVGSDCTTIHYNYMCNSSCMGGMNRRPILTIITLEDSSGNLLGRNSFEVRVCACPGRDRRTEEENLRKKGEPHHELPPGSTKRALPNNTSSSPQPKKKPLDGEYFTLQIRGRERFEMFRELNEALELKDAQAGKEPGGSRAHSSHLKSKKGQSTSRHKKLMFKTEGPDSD
- Experiment notes: Primary qHTS for small molecule compounds that upregulate eGFP-tagged delta133p53alpha (in N-terminal) cells. (AID 2060322);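 further: cells pre-induced with doxycycline then dosed without doxycycline; series mostly up to about 56 µM; 0% = DMSO vehicle and 100% = reference activator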
- Experimental parameters: NCI-H358 eGFP-delta133p53alpha fluorescence, 24 h; stronger effect = higher value
- Description: Assay Development and Screening Technology National Center for Advancing Translational Sciences (NCATS), National Institute of Health (NIH), Rockville, Maryland Cellular senescence (CS) is one of the hallmarks of aging and age-related diseases. […] Here we report the development and validation of a cell-based quantitative high throughput screening (qHTS) assay in 1,536-well format. […]
Inconclusive results are not listed.
Express your answer in %, writing the number without its unit.

Past entries and their recorded results:
Ask: Provide one value: measured activation of c1ccc(-c2csc(N3CCOCC3)n2)cc1
Result: -7.16

Ask: Provide one value: measured activation of CC(=O)OCC(=O)[C@@]1(O)[C@H](OC(C)=O)C[C@H]2[C@@H]3CCC4=CC(=O)C=C[C@]4(C)[C@@]3(F)[C@@H](O)C[C@@]21C
Result: 4.18

Others:
Ask: Provide one value: measured activation of CC(=O)Nc1ccn(C2COC(COC(=O)c3ccccc3)O2)c(=O)n1 (stereo not drawn)
Result: 16.4

Ask: Provide one value: measured activation of C=CCN1CCc2cc(O)c(O)cc2C(c2ccccc2)C1 (stereo not drawn)
Result: -43.2

Ask: Provide one value: measured activation of CC(C)=CCC(O)/C(C)=C/CO[C@@H]1O[C@H](CO)[C@@H](O)[C@H](O)[C@H]1O (stereo partly drawn)
Result: -15.2

Ask: Provide one value: measured activation of Cc1cccc(N(C)C(=S)Oc2ccc3c(c2)CCC3)c1
Result: -3

Ask: Provide one value: measured activation of CC1CCCCN1S(=O)(=O)c1ccc(N2CCCC2=O)cc1 (stereo not drawn)
Result: 2.86

Ask: Provide one value: measured activation of C/C=C(\C)C(=O)OC[C@H]1O[C@@H](O[C@H]2[C@@H](O[C@H]3O[C@H](COC(=O)/C(C)=C/C)[C@@H](O)[C@H](O)[C@H]3O[C@@H]3O[C@H](CO)[C@@H](O)[C@H](OC(=O)/C(C)=C/C)[C@H]3O)O[C@H](COC(=O)/C(C)=C/C)[C@@H](O)[C@@H]2O)[C@H](O)[C@@H](O)[C@@H]1O
Result: -25.2

Ask: Provide one value: measured activation of O=C(NCCN1CCCC1)c1cc(-c2ccc(CN3CCOCC3)cc2)nc2ccc(F)cc12
Result: 3.67

Ask: Provide one value: measured activation of Cc1[nH]c2ccccc2c1CC(=O)N[C@@H](Cc1ccccc1)C(=O)N(C)c1ccccc1
Result: 22.9

Ask: Provide one value: measured activation of COc1c(O)cc2c(c1O)C(=O)O[C@H](C)[C@H]2O
Result: -14.5

Ask: Provide one value: measured activation of CCC(=O)N1CCN(c2ccc(-n3c(=O)ccc4cnc5ccc(-c6cnc7ccccc7c6)cc5c43)cc2C(F)(F)F)CC1
Result: 41.3

Ask: Provide one value: measured activation of O=C(O)c1ccc(-c2cc3cccnc3c(-c3ccc4nonc4c3)n2)cc1
Result: 3.89

Ask: Provide one value: measured activation of CC(=O)c1[nH]cc(CCC(=O)O)c1CC(=O)O
Result: -15.3

Ask: Provide one value: measured activation of OC[C@@H](O)[C@@H](O)[C@H](O)[C@@H](O)CO
Result: 6.34

Ask: Provide one value: measured activation of CCNC(=O)C1OC(n2cnc3c(N)nc(NCCc4ccc(CCC(=O)O)cc4)nc32)C(O)C1O (stereo not drawn)
Result: -5.73

Ask: Provide one value: measured activation of O=C(/C=C/c1ccc(O)c(O)c1)OCc1ccccc1O[C@@H]1O[C@H](CO)[C@@H](O)[C@H](O)[C@H]1O
Result: 8.4

Ask: Provide one value: measured activation of O=C(CC1CC(c2ccc(F)cc2F)=NO1)N1CCOCC1 (stereo not drawn)
Result: 1.43
